Every entry's value here was drawn from patent US7915293B2.

Test system: A549 cells
Experiment: Cell proliferation assay, photographic image analysis of proliferation, apoptosis and death (PAD assay), A549
Assay type: cell-based
Set-up: key: “+” indicates that the compound exibits inhibitory activity; “−” indicates that low or no inhibitory activity was observed
Conditions: 6 concentrations tested
READOUT: PAD Assay, A549 6 pt

INSERT INTO assay_data (compound, meas_value) VALUES
  ('O=[N+]([O-])c1ccc(Oc2c(Cl)cc(S(=O)(=O)Nc3cccc(F)c3)cc2Cl)c(Cl)c1 [Example 232]', '+'),
  ('N#Cc1ccc(NS(=O)(=O)c2cc(Cl)c(Oc3ccc([N+](=O)[O-])cc3Cl)c(Cl)c2)cc1 [Example 200]', '+'),
  ('N=C(NS(=O)(=O)c1cc(Cl)c(Oc2ccc([N+](=O)[O-])cc2Cl)c(Cl)c1)c1ccccn1 [Example 27]', '−'),
  ('CS/C(=N\S(=O)(=O)c1cc(Cl)c(Oc2ccc([N+](=O)[O-])cc2Cl)c(Cl)c1)Nc1ccc(Cl)cc1 [Example 149]', '+'),
  ('Cc1ccc(F)cc1NS(=O)(=O)c1cc(Cl)c(Oc2ccc([N+](=O)[O-])cc2Cl)c(Cl)c1 [Compound 242]', '+'),
  ('CSc1ccccc1NS(=O)(=O)c1cc(Cl)c(Oc2ccc([N+](=O)[O-])cc2Cl)c(Cl)c1 [Example 191]', '+'),
  ('O=[N+]([O-])c1ccc(Oc2ccc(S(=O)(=O)Nc3cccc(Br)c3)cc2Cl)c(C(F)(F)F)c1 [Example 270]', '+'),
  ('O=S(=O)(Nc1ccc(Oc2ccc(Cl)cc2)cc1)c1cc(Cl)ccc1Cl [Example 276]', '+'),
  ('O=S(=O)(Nc1ccc(F)c(Cl)c1)c1ccc(Oc2ncc(C(F)(F)F)cc2Cl)cc1 [Example 256]', '+'),
  ('O=C(NCC1CC1)c1ccccc1NS(=O)(=O)c1cc(Cl)c(Oc2ccc([N+](=O)[O-])cc2Cl)c(Cl)c1 [Example 123]', '+'),
  ('Cc1cccc(C)c1NS(=O)(=O)c1cc(Cl)c(Oc2ccc([N+](=O)[O-])cc2Cl)c(Cl)c1 [Example 146]', '+'),
  ('O=C(Nc1ccccc1C(F)(F)F)N1CCC(Oc2ccccc2C(F)(F)F)CC1 [Example 306]', '−'),
  ('O=S(=O)(Nc1ccc(Oc2cc(C(F)(F)F)ccn2)cc1)c1ccccc1C(F)(F)F [Example 299]', '+'),
  ('O=[N+]([O-])c1ccc(Oc2c(Cl)cc(S(=O)(=O)Nc3cc(Br)cc(Br)n3)cc2Cl)c(Cl)c1 [Compound 218]', '−'),
  ('O=S(=O)(Nc1ccc(Oc2ncc(C(F)(F)F)cc2Cl)cc1)c1cccc(Cl)c1 [Compound 294]', '+');

====

Target: E3 (His-APC11/APC2-"APC") (Homo sapiens, UniProt Q9NYG5+Q9UJX6)
Sequence (Q9NYG5 whole entry): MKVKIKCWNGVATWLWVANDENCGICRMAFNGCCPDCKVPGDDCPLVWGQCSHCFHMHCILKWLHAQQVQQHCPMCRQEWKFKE
Sequence (Q9UJX6 whole entry): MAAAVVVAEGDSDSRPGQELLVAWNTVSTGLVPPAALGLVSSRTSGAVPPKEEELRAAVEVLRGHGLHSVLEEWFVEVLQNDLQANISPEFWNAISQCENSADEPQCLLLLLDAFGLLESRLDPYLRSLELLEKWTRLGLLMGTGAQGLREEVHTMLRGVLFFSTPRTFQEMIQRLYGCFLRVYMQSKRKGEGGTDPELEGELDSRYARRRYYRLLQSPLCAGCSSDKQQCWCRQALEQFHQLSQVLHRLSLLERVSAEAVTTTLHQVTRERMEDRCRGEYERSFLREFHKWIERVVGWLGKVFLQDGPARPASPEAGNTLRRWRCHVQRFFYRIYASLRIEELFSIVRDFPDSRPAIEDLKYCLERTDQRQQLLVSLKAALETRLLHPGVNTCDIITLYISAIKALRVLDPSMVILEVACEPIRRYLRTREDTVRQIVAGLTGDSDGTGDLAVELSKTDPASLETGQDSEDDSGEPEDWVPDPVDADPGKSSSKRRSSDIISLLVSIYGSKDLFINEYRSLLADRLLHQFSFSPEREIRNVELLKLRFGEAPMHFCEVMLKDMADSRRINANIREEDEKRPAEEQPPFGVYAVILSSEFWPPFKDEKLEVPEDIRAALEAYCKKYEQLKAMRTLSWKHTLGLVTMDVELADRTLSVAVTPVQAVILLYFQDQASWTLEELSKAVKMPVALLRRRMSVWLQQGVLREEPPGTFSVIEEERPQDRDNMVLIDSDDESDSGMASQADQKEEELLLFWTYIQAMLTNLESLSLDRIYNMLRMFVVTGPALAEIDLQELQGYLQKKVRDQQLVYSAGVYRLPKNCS
Experiment: Plate-based E3 ligase assay (APC FLAG), auto-ubiquitination
Assay type: biochemical
Set-up: key: “+” indicates that the compound exibits inhibitory activity; “−” indicates that low or no inhibitory activity was observed
Details: 8 concentrations tested
READOUT: APC Flag 8 pt

INSERT INTO results (compound, meas_value) VALUES
  ('O=[N+]([O-])c1cccc(Cl)c1Oc1ccc(S(=O)(=O)Nc2cccc(Br)c2)cc1', '−'),
  ('CC1CC(C)CN(S(=O)(=O)c2cc(Cl)c(Oc3ccc([N+](=O)[O-])cc3Cl)c(Cl)c2)C1 (centres unmarked)', '+'),
  ('N=C(NS(=O)(=O)c1cc(Cl)c(Oc2ccc([N+](=O)[O-])cc2Cl)c(Cl)c1)c1ccccc1', '−'),
  ('CC(C)(C)c1cc2cc(NS(=O)(=O)c3cc(Cl)c(Oc4ccc([N+](=O)[O-])cc4Cl)c(Cl)c3)ccc2[nH]1', '+'),
  ('Cc1c(Cl)cccc1NS(=O)(=O)c1ccc(Oc2c(Cl)cccc2[N+](=O)[O-])cc1', '−'),
  ('Cc1ccc(N(S(=O)(=O)c2cc(Cl)c(Oc3ccc([N+](=O)[O-])cc3Cl)c(Cl)c2)S(=O)(=O)c2cc(Cl)c(Oc3ccc([N+](=O)[O-])cc3Cl)c(Cl)c2)cc1', '+'),
  ('O=S(=O)(Nc1cc(Cl)ccc1C(F)(F)F)c1ccc(Oc2ncc(C(F)(F)F)cc2Cl)cc1', '+'),
  ('O=C(NCC1CC1)c1ccc(NS(=O)(=O)c2cc(Cl)c(Oc3ccc([N+](=O)[O-])cc3Cl)c(Cl)c2)cc1', '+'),
  ('O=[N+]([O-])c1ccc(Oc2c(Cl)cc(S(=O)(=O)Nc3cc(C(F)(F)F)ccc3Cl)cc2Cl)c(Cl)c1', '+'),
  ('O=[N+]([O-])c1ccc(Oc2c(Cl)cc(S(=O)(=O)Nc3ccccc3I)cc2Cl)c(Cl)c1', '+'),
  ('Cc1c(Cl)cccc1NS(=O)(=O)c1ccc(Oc2cccc(Cl)c2C#N)cc1', '−'),
  ('O=[N+]([O-])c1ccc(Oc2c(Cl)cc(S(=O)(=O)NCC3CC3)cc2Cl)c(Cl)c1', '+'),
  ('O=[N+]([O-])c1ccc(Oc2c(Cl)cc(S(=O)(=O)Nc3ccc(C(F)(F)F)cc3Cl)cc2Cl)c(Cl)c1', '+'),
  ('COc1ccc(Cl)cc1NS(=O)(=O)c1cc(Cl)c(Oc2ccc([N+](=O)[O-])cc2Cl)c(Cl)c1', '+');

====

Target: E3 (His-APC11/APC2-"APC") (Homo sapiens, UniProt Q9NYG5+Q9UJX6)
Test: Plate-based E3 ligase assay (APC FLAG), auto-ubiquitination
Type: biochemical
Set-up: key: “+” indicates that the compound exibits inhibitory activity; “−” indicates that low or no inhibitory activity was observed
Details: 8 concentrations tested
READOUT: APC Flag 8 pt

INSERT INTO measurements (compound, meas_value) VALUES
  ('O=S(=O)(Nc1ccc(Oc2ccc(F)cc2)c(Br)c1)c1cccc(Cl)c1', '+'),
  ('O=[N+]([O-])c1ccc(Oc2c(Cl)cc(S(=O)(=O)Nc3ccsc3)cc2Cl)c(Cl)c1', '+'),
  ('O=C(Nc1cc(Cl)ccc1Cl)N1CCC(Oc2ccccc2C(F)(F)F)CC1', '−'),
  ('O=[N+]([O-])c1ccc(Oc2c(Cl)cc(S(=O)(=O)Nc3cccc(Cl)c3)cc2Cl)c(Cl)c1', '+'),
  ('O=S(=O)(Nc1ccc(F)c(Cl)c1)c1ccc(Oc2ncc(C(F)(F)F)cc2Cl)cc1', '+'),
  ('O=[N+]([O-])c1ccc(Oc2c(Cl)cc(S(=O)(=O)Nc3ccc(F)cc3)cc2Cl)c(Cl)c1', '+'),
  ('O=S(=O)(Nc1ccc(Oc2cc(C(F)(F)F)ccc2Cl)cc1F)c1ccc(F)cc1', '+'),
  ('O=[N+]([O-])c1ccc(Oc2c(Cl)cc(S(=O)(=O)NCCN3CCOCC3)cc2Cl)c(Cl)c1', '−'),
  ('O=[N+]([O-])c1ccc(Oc2c(Cl)cc(S(=O)(=O)NCC3CCCO3)cc2Cl)c(Cl)c1 (centres unmarked)', '−'),
  ('O=[N+]([O-])c1ccc(Oc2c(Cl)cc(S(=O)(=O)Nc3ccccc3C(F)(F)F)cc2Cl)c(Cl)c1', '+'),
  ('Cc1c(Cl)cccc1N(S(=O)(=O)c1cc(Cl)c(Oc2ccc([N+](=O)[O-])cc2Cl)c(Cl)c1)S(=O)(=O)c1cc(Cl)c(Oc2ccc([N+](=O)[O-])cc2Cl)c(Cl)c1', '+'),
  ('O=[N+]([O-])c1ccc(Oc2c(Cl)cc(S(=O)(=O)Nc3cccnc3)cc2Cl)c(Cl)c1', '−'),
  ('CC(=O)N(C(C)=O)c1ccc(Oc2c(Cl)cc(S(=O)(=O)Nc3cccc(Cl)c3)cc2Cl)c(Cl)c1', '+'),
  ('O=[N+]([O-])c1ccc(Oc2c(Cl)cc(S(=O)(=O)Nc3cccnc3Cl)cc2Cl)c(Cl)c1', '+'),
  ('N#Cc1ccc(NS(=O)(=O)c2cc(Cl)c(Oc3ccc([N+](=O)[O-])cc3Cl)c(Cl)c2)cc1', '+'),
  ('O=[N+]([O-])c1ccc(Oc2ccc(S(=O)(=O)Nc3cc(Cl)ccc3C(F)(F)F)cc2Cl)c(C(F)(F)F)c1', '+'),
  ('COc1ccc(S(=O)(=O)Nc2ccc(Oc3cc(C(F)(F)F)ccc3Cl)cc2F)cc1', '+'),
  ('O=[N+]([O-])c1ccc(Oc2c(Cl)cc(S(=O)(=O)Nc3ccccc3Cl)cc2Cl)c(Cl)c1', '+'),
  ('COc1ccc(NS(=O)(=O)c2cc(Cl)c(Oc3ccc([N+](=O)[O-])cc3Cl)c(Cl)c2)cc1OC', '+'),
  ('O=S(=O)(Nc1ccc(Oc2ncc(C(F)(F)F)cc2Cl)cc1)c1ccccc1C(F)(F)F', '−');

====

Test system: A549 cells
Assay: Cell proliferation assay, photographic image analysis of proliferation, apoptosis and death (PAD assay), A549
Assay type: cell-based
Design: key: “+” indicates that the compound exibits inhibitory activity; “−” indicates that low or no inhibitory activity was observed
Conditions: 6 concentrations tested
READOUT: PAD Assay, A549 6 pt

INSERT INTO assay_data (compound, meas_value) VALUES
  ('CC1CN(S(=O)(=O)c2cc(Cl)c(Oc3ccc([N+](=O)[O-])cc3Cl)c(Cl)c2)CC(C)O1 (stereo not drawn) [Example 18]', '−'),
  ('N=C(NS(=O)(=O)c1cc(Cl)c(Oc2ccc([N+](=O)[O-])cc2)c(Cl)c1)c1cccnc1 [Example 60]', '+'),
  ('O=S(=O)(Nc1ccc(Oc2ccc(F)cc2)c(Br)c1)c1cc(Cl)ccc1Cl [Example 278]', '+'),
  ('O=S(=O)(Nc1ccc(Oc2cc(C(F)(F)F)ccn2)cc1)c1cccc(Cl)c1 [Example 297]', '+'),
  ('O=S(=O)(Nc1ccc(Oc2ncc(C(F)(F)F)cc2Cl)cc1)c1ccccc1C(F)(F)F [Example 296]', '+'),
  ('O=[N+]([O-])c1ccc(F)c(NS(=O)(=O)c2ccc(Oc3ncc(C(F)(F)F)cc3Cl)cc2)c1 [Example 258]', '+'),
  ('Cc1cc(NS(=O)(=O)c2cc(Cl)c(Oc3ccc([N+](=O)[O-])cc3Cl)c(Cl)c2)no1 [Example 217]', '−'),
  ('O=[N+]([O-])c1ccc(Oc2ccc(S(=O)(=O)Nc3ccc(F)cc3C(F)(F)F)cc2Cl)c(C(F)(F)F)c1 [Example 266]', '+'),
  ('O=S(=O)(Nc1ccc(Oc2cc(C(F)(F)F)ccc2Cl)cc1F)c1ccc(F)cc1 [Example 286]', '+'),
  ('O=[N+]([O-])c1ccc(Oc2c(Cl)cc(S(=O)(=O)Nc3cc(F)ccc3C(F)(F)F)cc2Cl)c(Cl)c1 [Example 235]', '+'),
  ('O=[N+]([O-])c1ccc(Oc2c(Cl)cc(S(=O)(=O)Nc3ccccc3-n3cccc3)cc2Cl)c(Cl)c1 [Example 285]', '+'),
  ('Cc1ccc(NS(=O)(=O)c2cc(Cl)c(Oc3ccc([N+](=O)[O-])cc3Cl)c(Cl)c2)c(Cl)c1 [Example 251]', '+'),
  ('Cc1c(Cl)cccc1S(=O)(=O)Nc1ccc(Oc2ccc(F)cc2)c(Br)c1 [Example 281]', '+'),
  ('COc1cc(NS(=O)(=O)c2cc(Cl)c(Oc3ccc([N+](=O)[O-])cc3Cl)c(Cl)c2)c(OC)cc1Cl [Example 202]', '+'),
  ('O=[N+]([O-])c1ccc(Oc2c(Cl)cc(S(=O)(=O)Nc3ccc4cn[nH]c4c3)cc2Cl)c(Cl)c1 [Example 171]', '+'),
  ('O=[N+]([O-])c1ccc(Oc2c(Cl)cc(S(=O)(=O)Nc3c(F)cc(F)cc3F)cc2Cl)c(Cl)c1 [Example 241]', '+'),
  ('N=C(NS(=O)(=O)c1cc(Cl)c(Oc2ccc([N+](=O)[O-])cc2Cl)c(Cl)c1)c1ccncc1 [Example 29]', '+'),
  ('O=[N+]([O-])c1ccc(Oc2c(Cl)cc(S(=O)(=O)Nc3ccc(F)cc3F)cc2Cl)c(Cl)c1 [Example 17]', '−'),
  ('O=S(=O)(Nc1ccc(Oc2ncc(C(F)(F)F)cc2Cl)cc1)c1cccc(C(F)(F)F)c1 [Example 295]', '+'),
  ('O=[N+]([O-])c1ccc(Oc2ccc(S(=O)(=O)Nc3ccc(C(F)(F)F)cc3Cl)cc2Cl)c(C(F)(F)F)c1 [Compound 265]', '+'),
  ('O=[N+]([O-])c1ccc(Oc2c(Cl)cc(S(=O)(=O)Nc3ccc(F)cc3I)cc2Cl)c(Cl)c1 [Example 226]', '+'),
  ('Cc1c(F)cccc1NS(=O)(=O)c1cc(Cl)c(Oc2ccc([N+](=O)[O-])cc2Cl)c(Cl)c1 [Example 234]', '+'),
  ('O=[N+]([O-])c1ccc(Oc2c(Cl)cc(S(=O)(=O)/N=C(\NO)Nc3ccc(Cl)cc3)cc2Cl)c(Cl)c1 [Example 58]', '+'),
  ('N=C(NS(=O)(=O)c1cc(Cl)c(Oc2ccc([N+](=O)[O-])cc2Cl)c(Cl)c1)c1ccc(Cl)cc1 [Example 25]', '−'),
  ('O=S(=O)(Nc1cccc2cnccc12)c1cc(Cl)c(Oc2ccc(Cl)cc2Cl)c(Cl)c1 [Example 246]', '+'),
  ('O=C(Nc1ccc(Oc2ccc(F)cc2)c(Br)c1)c1cccc(Cl)c1 [Compound 303]', '+'),
  ('O=[N+]([O-])c1ccc(Oc2ccc(S(=O)(=O)Nc3cc(C(F)(F)F)ccc3Cl)cc2Cl)c(C(F)(F)F)c1 [Compound 264]', '+'),
  ('O=[N+]([O-])c1ccc(Oc2c(Cl)cc(S(=O)(=O)N3CCCCC3)cc2Cl)c(Cl)c1 [Example 21]', '−'),
  ('O=[N+]([O-])c1ccc(Oc2c(Cl)cc(S(=O)(=O)Nc3cccc(Br)c3)cc2Cl)c(Cl)c1 [Example 159]', '+'),
  ('O=S(=O)(Nc1c(F)cccc1F)c1ccc(Oc2ncc(C(F)(F)F)cc2Cl)cc1 [Compound 259]', '−');
